target: Neuronal acetylcholine receptor subunit alpha-7 (Rattus norvegicus); experiment: Agonist activity at rat alpha7 nAChR expressed in HEK293 cells assessed as calcium ion influx by FRET assay; type: cell-based
Sequence (Q05941 whole entry): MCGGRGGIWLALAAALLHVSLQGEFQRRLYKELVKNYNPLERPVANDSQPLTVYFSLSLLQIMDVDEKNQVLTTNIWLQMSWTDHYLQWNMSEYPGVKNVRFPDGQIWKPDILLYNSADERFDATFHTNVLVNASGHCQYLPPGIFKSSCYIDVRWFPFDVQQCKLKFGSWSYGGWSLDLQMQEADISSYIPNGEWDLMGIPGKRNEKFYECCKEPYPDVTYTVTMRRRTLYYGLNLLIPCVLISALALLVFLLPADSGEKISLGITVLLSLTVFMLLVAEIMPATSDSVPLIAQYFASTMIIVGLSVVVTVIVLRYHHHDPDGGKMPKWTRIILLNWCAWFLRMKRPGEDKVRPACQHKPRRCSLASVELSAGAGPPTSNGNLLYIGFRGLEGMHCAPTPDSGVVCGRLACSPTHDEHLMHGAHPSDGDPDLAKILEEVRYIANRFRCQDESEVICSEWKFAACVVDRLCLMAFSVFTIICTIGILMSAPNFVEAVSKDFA
pEC50: −log10 of the molar value.
Below, each entry is listed with its recorded pEC50.
READOUT TYPE: pEC50

* CC(CCn1c(=O)cc(-c2ccccc2)c2ccccc21)N(C)C (racemic) | < 5.00
* CN(C)CCn1c(=O)cc(-c2ccccc2)c2ccccc21 | < 5.00
* CN1CCCC(Cn2c(=O)c(C#N)c(-c3ccccc3)c3ccccc32)C1 (racemic) | < 5.00

Ref: ChEMBL document CHEMBL2331502
